Tested on: A498 renal
Test: NCI-60 one-dose screen, 48 h
Conditions: 10 µM unless noted
Method: Growth inhibition of the A498 human tumor cell line is measured as a screen for anti-cancer activity. Cells are grown in 96 well plates and exposed to the test compound for 48 hours. Compounds are tested at a single concentration, which is 10^-5 M for most compounds. The reported endpoint is percent growth (GI% or GIPRCNT), where numbers from 0 - 100% represent growth inhibition, and numbers from -100% - 0 represent cell death. For example, a value of 40 represents 60% growth inhibition. […]
Compounds without any hit were thinned out: in the full panel of roughly 83,000, 20% have a hit. Activity calls are given as the source filed them. The calls were made as follows: active = growth percent below 10; inactive = the rest.
Outcomes: active, inactive

> print(dat)
                                    compound  answer.label
 1  CC[C@H](C)C(=O)O[C@H]1C[C@@H](C)C=C2C=C[C@H](C)[C@H](CC[C@@H]3C[C@@H](O)CC(=O)O3)[C@H]21        active
 2  Nc1c2ccccc2nc2ccccc12 (tested in a mixture with another compound)        active
 3  COC(=O)CC1=C(C)/C(=C/c2[nH]c(-c3ccc[nH]3)cc2OC)N=C1C        active
 4  c1ccc2c(c1)[nH]c1c2cc[n+]2cc3c(cc12)CCCC3      inactive
 5  CCCCCCC(C)(O)c1ccccc1 (stereo not given)      inactive
 6  C[C@]12CC[C@@H]3c4ccc(O)cc4CC[C@H]3[C@@H]1CC[C@@H]2NS(=O)(=O)c1cccc(Br)c1      inactive
 7  COc1cc(/C=C/C(=O)c2ccc(F)cc2)ccc1OCCCCCOc1cc2c(cc1OC)C(=O)N1CCCC1C=N2 (stereo not given)        active
 8  CCCCCCCC/C=C\CCCCCCCCOc1ccccc1CC(=O)NCC[N+]1(C)CCCC1      inactive
 9  CCOC(=O)C(C(C)=O)c1nc2sc3cc(Cl)ccc3n2c(=N)c1C#N (stereo not given)      inactive
10                   O=C(NCCCO)c1cc(Cl)ccc1O      inactive
11  COc1ccc(/C=N\Nc2ccc([N+](=O)[O-])cn2)cc1OC        active
12                   Cc1ccsc1/C=C/C1=NCCCN1C      inactive
13  Cc1ccc(C(O)C2=CC(=O)c3ccccc3C2=O)cc1 (stereo not given)      inactive
14          CCOC(=O)c1ccccc1OC(=O)NNc1ccccc1      inactive
15  CC/C=C\C=C/C(=O)N/C=C/CC1Cc2cccc(O)c2C(=O)O1 (stereo not given)      inactive
